target: UniProtKB G1UB37; experiment: cell-based; type: cell-based, C. albicans
Sequence (G1UB37 whole entry): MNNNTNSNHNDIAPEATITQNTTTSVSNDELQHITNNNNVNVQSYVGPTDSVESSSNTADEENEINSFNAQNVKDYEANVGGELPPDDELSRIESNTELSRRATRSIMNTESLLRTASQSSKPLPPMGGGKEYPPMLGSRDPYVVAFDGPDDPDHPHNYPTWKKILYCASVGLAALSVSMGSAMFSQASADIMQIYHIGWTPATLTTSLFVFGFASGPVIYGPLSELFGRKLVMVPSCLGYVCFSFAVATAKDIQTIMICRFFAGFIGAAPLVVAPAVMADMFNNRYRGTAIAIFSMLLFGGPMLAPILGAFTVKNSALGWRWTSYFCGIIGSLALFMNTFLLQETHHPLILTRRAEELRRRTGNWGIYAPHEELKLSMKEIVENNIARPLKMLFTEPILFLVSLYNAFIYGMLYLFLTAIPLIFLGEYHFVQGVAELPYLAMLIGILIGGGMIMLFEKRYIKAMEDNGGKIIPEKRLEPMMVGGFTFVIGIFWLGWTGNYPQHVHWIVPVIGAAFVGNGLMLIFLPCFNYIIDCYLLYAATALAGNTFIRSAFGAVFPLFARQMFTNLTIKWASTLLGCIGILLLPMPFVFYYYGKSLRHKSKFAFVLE
Listed compounds paired with reported IC50

{"itemSmiles": "CCC(CC)C(=O)OCC1=C[C@H]2C(=O)O[C@H]3C[C@@H](C/C=C(\\C)C[C@@H](C)/C=C/C=C4\\CO[C@H]([C@@H]1O)[C@@]42O)O[C@@]1(CC[C@H](C)[C@@H](C)O1)C3", "IC50": "> 99.6 µM"}
{"itemSmiles": "CC1=C[C@H]2C(=O)O[C@H]3C[C@@H](C/C=C(\\C)C[C@@H](C)/C=C/C=C4\\CO[C@H]([C@@H]1O)[C@@]42O)O[C@]1(C3)C[C@H](O)[C@H](C)[C@@H](/C(C)=C/C(C)C)O1", "IC50": "> 104 µM"}
{"itemSmiles": "CO[C@@H]1C(C)=C[C@H]2C(=O)O[C@H]3C[C@@H](C/C=C(\\C)C[C@@H](C)/C=C/C=C4\\CO[C@H]1[C@@]42O)O[C@@]1(CC[C@H](C)[C@@H](C)O1)C3", "IC50": "> 118 µM"}
{"itemSmiles": "CC[C@H]1O[C@]2(CC[C@@H]1C)C[C@@H]1C[C@@H](C/C=C(\\C)C[C@@H](C)/C=C/C=C3\\CO[C@@H]4[C@H](O)C(C)=C[C@@H](C(=O)O1)[C@]34O)O2", "IC50": "> 118 µM"}
{"itemSmiles": "C/C1=C\\C[C@@H]2C[C@@H](C[C@]3(CC[C@H](C)[C@@H](C)O3)O2)OC(=O)[C@@H]2C=C(COC(=O)c3ccc[nH]3)[C@@H](O)[C@H]3OC/C(=C\\C=C\\[C@H](C)C1)[C@]32O", "IC50": "> 100 µM"}
